Data origin, for the record: the supplement of paper PMC6757056

Listed below: normalized RNA/DNA level without ligand (log10) values for each entry.
B1: library; a variant is named by its letters at N, in order (parent)
chain: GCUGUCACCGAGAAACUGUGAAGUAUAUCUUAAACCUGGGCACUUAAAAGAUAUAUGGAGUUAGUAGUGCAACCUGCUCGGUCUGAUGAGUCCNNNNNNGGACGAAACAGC

Variants of: B1
run.description: normalized RNA/DNA level without ligand (relative to sTRSVctl = 100) (log10 (% of sTRSVctl)); HEK293T; ligand: cyclic di-GMP (c-di-GMP-II aptamer); higher = less ribozyme self-cleavage, higher mRNA level
condition.parameters: reporter: mCherry (pCS4076), ligand present: no

Fill in the blank: the reported normalized RNA/DNA level without ligand (log10) of CCAUAU is ____.
1.55

Next:
Field request: normalized RNA/DNA level without ligand (log10) | item: UCGAGA
1.47

Tell me the measured normalized RNA/DNA level without ligand (log10) of UUACUG , please.
1.67
